target: CyclinE1/CDK2 (Homo sapiens, UniProt P24864)
Construct: purchased Eurofins, discovery 14-475
assay notes: Fluorescence Polarization (FP) competitive binding assay, Cyclin E1/Cdk2;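 further: readings taken after two-hour equilibration at room temperature in HEPES buffer with NaCl, DTT, NP-40 and BSA, IC50 fitted from eight-concentration serial dilution series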
stated conditions: 10 nM Cyclin E1/Cdk2, 2 nM FAM probe; average of 2-3 independent experiments; read-out: Cyclin E FP IC50
*1 amine or outer side, *2 acyl side, *3 side chain or, on linkers, in order; H or OH if unused. Where a SMILES comes first, the peptide text is derived from it. Bridges are numbered along the chain shown (N, C = ends). [ ]: non-standard residue; d: D form. The star is where a group is joined. NMehhhLys(Me) = CN([C@@H](CCCCCCCN(C)[*:3])C(=O)[*:2])[*:1]; X66 = CN([C@@H](Cc1cc(Cl)ccc1-c1cccnc1)C(=O)[*:2])[*:1]; NMe(hhhLys) = CN([C@@H](CCCCCCCN[*:3])C(=O)[*:2])[*:1]; X33 = CN([C@@H](Cc1cc(Cl)cc2c1OCCO2)C(=O)[*:2])[*:1]; cBuCO(3,3-F2-1-CF3) = O=C(C1(C(F)(F)F)CC(F)(F)C1)*; Pro(trans-4-F) = O=C(O)[C@@H]1C[C@@H](F)CN1; Gly(cPr) = N[C@H](C(=O)O)C1CC1

compound	target	IC50 [µM]
CC(C)C[C@@H]1NC(=O)[C@@H](N(C)C(=O)[C@@H](NC(=O)[C@@H]2C[C@@H](F)CN2C(=O)C2(C(F)(F)F)CC(F)(F)C2)C2CC2)CCCCCCCN(C)C(=O)[C@H](Cc2cc(Cl)ccc2-c2cccnc2)N(C)C1=O [Example 196] ({cBuCO(3,3-F2-1-CF3)}-[Pro(trans-4-F)][Gly(cPr)][NMehhhLys(Me)]L[X66]; lactam 3-C)	CyclinE1/CDK2 (Homo sapiens, UniProt P24864)	0.74
CC(C)C[C@@H]1NC(=O)[C@@H](N(C)C(=O)[C@@H](NC(=O)[C@@H]2C[C@@H](F)CN2C(=O)C2(C(F)(F)F)CC(F)(F)C2)C2CC2)CC=CCCCCN(C)C(=O)[C@H](Cc2cc(F)ccc2C2=CCC(O)CC2)N(C)C1=O (stereo partly drawn)	CyclinE1/CDK2 (Homo sapiens, UniProt P24864)	0.8
CC(C)C[C@@H]1NC(=O)[C@@H](N(C)C(=O)[C@@H](NC(=O)[C@@H]2C[C@@H](F)CN2C(=O)C2(C(F)(F)F)CC(F)(F)C2)C2CC2)CCCCCCCNC(=O)[C@H](Cc2cc(Cl)cc3c2OCCO3)N(C)C1=O [Example 330] ({cBuCO(3,3-F2-1-CF3)}-[Pro(trans-4-F)][Gly(cPr)][NMe(hhhLys)]L[X33]; lactam 3-C)	CyclinE1/CDK2 (Homo sapiens, UniProt P24864)	0.1

###

Test system: OVCAR3 cells
assay notes: MTT proliferation assay, OVCAR3;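 further: compound given as an 8- or 10-point series, one day after plating, with exposure covering roughly 3-4 cell doublings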
Assay type: cell-based
stated conditions: 5 days compound exposure, 1:3 serial dilution starting at 10 μM
*1 amine or outer side, *2 acyl side, *3 side chain or, on linkers, in order; H or OH if unused. Where a SMILES comes first, the peptide text is derived from it. Bridges are numbered along the chain shown (N, C = ends). [ ]: non-standard residue; d: D form. The star is where a group is joined. X205 = CC(C)C(=O)N1[C@@H]2COC[C@H]1C=C(c1ccc(F)cc1C[C@@H](C(=O)[*:2])N(C)[*:1])C2; X111 = CN([C@@H](Cc1cc(Cl)ccc1-c1nnc(C2CC2)o1)C(=O)[*:2])[*:1]; NMehhhLys(Me) = CN([C@@H](CCCCCCCN(C)[*:3])C(=O)[*:2])[*:1]; NMe(hhhLys) = CN([C@@H](CCCCCCCN[*:3])C(=O)[*:2])[*:1]; cBuCO(3,3-F2-1-CF3) = O=C(C1(C(F)(F)F)CC(F)(F)C1)*; Pro(trans-4-F) = O=C(O)[C@@H]1C[C@@H](F)CN1; Gly(cPr) = N[C@H](C(=O)O)C1CC1

compound	units label	GI50
CC(C)C[C@@H]1NC(=O)[C@@H](N(C)C(=O)[C@@H](NC(=O)[C@@H]2C[C@@H](F)CN2C(=O)C2(C(F)(F)F)CC(F)(F)C2)C2CC2)CCCCCCCNC(=O)[C@H](Cc2cc(F)ccc2C2=C[C@@H]3COC[C@H](C2)N3C(=O)C(C)C)N(C)C1=O [Example 325] ({cBuCO(3,3-F2-1-CF3)}-[Pro(trans-4-F)][Gly(cPr)][NMe(hhhLys)]L[X205]; lactam 3-C)	nM	10
CC(C)C[C@@H]1NC(=O)[C@@H](N(C)C(=O)[C@@H](NC(=O)[C@@H]2C[C@@H](F)CN2C(=O)C2(C(F)(F)F)CC(F)(F)C2)C2CC2)CCCCCCCN(C)C(=O)[C@H](Cc2cc(Cl)ccc2-c2nnc(C3CC3)o2)N(C)C1=O [Example 240] ({cBuCO(3,3-F2-1-CF3)}-[Pro(trans-4-F)][Gly(cPr)][NMehhhLys(Me)]L[X111]; lactam 3-C)	nM	10
CC(C)C[C@@H]1NC(=O)[C@@H](N(C)C(=O)[C@@H](NC(=O)[C@@H]2C[C@@H](F)CN2C(=O)C2(C(F)(F)F)CC(F)(F)C2)C2CC2)CC=CCCCCNC(=O)[C@H](Cc2cc(Cl)ccc2C2=CCN(C(=O)C(C)(C)C)CC2)N(C)C1=O	nM	260

###

target: CyclinB1/CDK1 (Homo sapiens, UniProt P14635)
Construct: purchased Eurofins, discovery 14-450
assay notes: Fluorescence Polarization (FP) competitive binding assay, Cyclin B1/Cdk1;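 further: fluorescence polarization read after equilibration at room temperature, with IC50 taken from serially diluted dose-response curves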
stated conditions: 10 nM Cyclin B1/Cdk1, 2 nM FAM probe; average of 2-3 independent experiments; read-out: Cyclin B FP IC50
*1 amine or outer side, *2 acyl side, *3 side chain or, on linkers, in order; H or OH if unused. Where a SMILES comes first, the peptide text is derived from it. Bridges are numbered along the chain shown (N, C = ends). [ ]: non-standard residue; d: D form. The star is where a group is joined. X124 = CC(C)C(=O)N1[C@@H]2CC[C@H]1C=C(c1ccc(F)cc1C[C@@H](C(=O)[*:2])N(C)[*:1])C2; X192 = COc1cccc(-c2ccc(Cl)cc2C[C@@H](C(=O)[*:2])N(C)[*:1])c1; NMehhhLys(Me) = CN([C@@H](CCCCCCCN(C)[*:3])C(=O)[*:2])[*:1]; cBuCO(3,3-F2-1-CF3) = O=C(C1(C(F)(F)F)CC(F)(F)C1)*; Pro(trans-4-F) = O=C(O)[C@@H]1C[C@@H](F)CN1; Gly(cPr) = N[C@H](C(=O)O)C1CC1
Listed below: IC50 values for each entry.
reported property: IC50 (nM)

molecule	units label	value reported
COc1cccc(-c2ccc(Cl)cc2C[C@H]2C(=O)N(C)CCCCCCC[C@H](N(C)C(=O)[C@@H](NC(=O)[C@@H]3C[C@@H](F)CN3C(=O)C3(C(F)(F)F)CC(F)(F)C3)C3CC3)C(=O)N[C@@H](CC(C)C)C(=O)N2C)c1 [Example 197] ({cBuCO(3,3-F2-1-CF3)}-[Pro(trans-4-F)][Gly(cPr)][NMehhhLys(Me)]L[X192]; lactam 3-C)	nM	20
CC(C)C[C@@H]1NC(=O)[C@@H](N(C)C(=O)[C@@H](NC(=O)[C@@H]2C[C@@H](F)CN2C(=O)C2(C(F)(F)F)CC(F)(F)C2)C2CC2)CCCCCCCN(C)C(=O)[C@H](Cc2cc(F)ccc2C2=C[C@@H]3CC[C@H](C2)N3C(=O)C(C)C)N(C)C1=O [Example 317] ({cBuCO(3,3-F2-1-CF3)}-[Pro(trans-4-F)][Gly(cPr)][NMehhhLys(Me)]L[X124]; lactam 3-C)	nM	20

###

System: NCI-H1048 cells
assay notes: MTT proliferation assay, NCI-H1048;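 further: Dose-response in 96-well plates over 8 or 10 concentration points, with exposure spanning 3-4 cell doublings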
Format: cell-based
stated conditions: 5 days compound exposure, 1:3 serial dilution starting at 10 μM
*1 amine or outer side, *2 acyl side, *3 side chain or, on linkers, in order; H or OH if unused. Where a SMILES comes first, the peptide text is derived from it. Bridges are numbered along the chain shown (N, C = ends). [ ]: non-standard residue; d: D form. The star is where a group is joined. X126 = CC(C)C(=O)N1[C@H]2COC[C@@H]1C=C(c1ccc(F)cc1C[C@@H](C(=O)[*:2])N(C)[*:1])C2; X106 = CN([C@@H](Cc1cc(Cl)ccc1-c1ccc(N2CCN(Cc3ccccn3)CC2)cc1)C(=O)[*:2])[*:1]; X80 = CN1CC=C(c2ccc(-c3ccc(Cl)cc3C[C@@H](C(=O)[*:2])N(C)[*:1])cc2)CC1; X134 = CN([C@@H](Cc1cc(Cl)ccc1-c1cnc2[nH]c(O)cc2c1)C(=O)[*:2])[*:1]; NMehhhLys(Me) = CN([C@@H](CCCCCCCN(C)[*:3])C(=O)[*:2])[*:1]; cBuCO(3,3-F2-1-CF3) = O=C(C1(C(F)(F)F)CC(F)(F)C1)*; Pro(trans-4-F) = O=C(O)[C@@H]1C[C@@H](F)CN1; Gly(cPr) = N[C@H](C(=O)O)C1CC1
Reported values of GI50 for individual entries

compound	GI50 [nM]
CC(C)C[C@@H]1NC(=O)[C@@H](N(C)C(=O)[C@@H](NC(=O)[C@@H]2C[C@@H](F)CN2C(=O)C2(C(F)(F)F)CC(F)(F)C2)C2CC2)CCCCCCCN(C)C(=O)[C@H](Cc2cc(F)ccc2C2=C[C@H]3COC[C@@H](C2)N3C(=O)C(C)C)N(C)C1=O [Example 328] ({cBuCO(3,3-F2-1-CF3)}-[Pro(trans-4-F)][Gly(cPr)][NMehhhLys(Me)]L[X126]; lactam 3-C)	10
CC(C)C[C@@H]1NC(=O)[C@@H](N(C)C(=O)[C@@H](NC(=O)[C@@H]2C[C@@H](F)CN2C(=O)C2(C(F)(F)F)CC(F)(F)C2)C2CC2)CCCCCCCN(C)C(=O)[C@H](Cc2cc(Cl)ccc2-c2cnc3[nH]c(O)cc3c2)N(C)C1=O [Example 272] ({cBuCO(3,3-F2-1-CF3)}-[Pro(trans-4-F)][Gly(cPr)][NMehhhLys(Me)]L[X134]; lactam 3-C)	90
CC(C)C[C@@H]1NC(=O)[C@@H](N(C)C(=O)[C@@H](NC(=O)[C@@H]2C[C@@H](F)CN2C(=O)C2(C(F)(F)F)CC(F)(F)C2)C2CC2)C/C=C\CCCCN(C)C(=O)[C@H](Cc2cc(Cl)ccc2-c2cnn(C)c2)N(C)C1=O [Example 168]	10
CC(C)C[C@@H]1NC(=O)[C@@H](N(C)C(=O)[C@@H](NC(=O)[C@@H]2C[C@@H](F)CN2C(=O)C2(C(F)(F)F)CCC2)C2CC2)CC=CCCCCNC(=O)[C@H](Cc2cc(Cl)cnc2OC2CC2)N(C)C1=O (single isomer, unassigned) [Example 107-P1]	700
CC(C)C[C@@H]1NC(=O)[C@@H](N(C)C(=O)[C@@H](NC(=O)[C@@H]2C[C@@H](F)CN2C(=O)C2(C(F)(F)F)CC(F)(F)C2)C2CC2)CCCCCCCN(C)C(=O)[C@H](Cc2cc(Cl)ccc2-c2ccc(N3CCN(Cc4ccccn4)CC3)cc2)N(C)C1=O [Example 368] ({cBuCO(3,3-F2-1-CF3)}-[Pro(trans-4-F)][Gly(cPr)][NMehhhLys(Me)]L[X106]; lactam 3-C)	10
CC(C)C[C@@H]1NC(=O)[C@@H](N(C)C(=O)[C@@H](NC(=O)[C@@H]2C[C@@H](F)CN2C(=O)C2(C(F)(F)F)CC(F)(F)C2)C2CC2)CCCCCCCN(C)C(=O)[C@H](Cc2cc(Cl)ccc2-c2ccc(C3=CCN(C)CC3)cc2)N(C)C1=O [Example 351] ({cBuCO(3,3-F2-1-CF3)}-[Pro(trans-4-F)][Gly(cPr)][NMehhhLys(Me)]L[X80]; lactam 3-C)	10
